Assay: Displacement of [3H]di-o-tolylguanidine from sigma 2 receptor in rat brain homogenates after 120 mins by liquid scintillation counting
Format: tissue-based
testReadout: Ki (µM)

c1ccc(CCN2CCCCC2)cc1 [1-PHENETHYLPIPERIDINE]; 0.14
CN(CCc1ccccc1)[C@H]1CCCC[C@@H]1O (relative stereo); 0.22

A: CN(CCCc1ccccc1)[C@H]1CCCC[C@@H]1O (relative stereo)
B: CN(C)[C@H]1CCCC[C@@H]1OCCCc1ccccc1 (relative stereo)
C: CN(C)[C@H]1CCCC[C@@H]1OC/C=C/c1ccccc1 (relative stereo)
D: CN(CCc1ccccc1)[C@H]1CCCC[C@@H]1OCCCc1ccccc1 (relative stereo)
**Query** Sort (4 compounds) by Ki: min first. Reply with the labels, ordered as the question asks.
**Result** A, D, C, B
(A: 0.0067 µM, D: 0.57 µM, C: 1.1 µM, B: 3.8 µM)

----------
Organism: Rattus norvegicus
Test: Selectivity ratio of Ki for sigma 2 receptor in rat brain homogenates to Ki for sigma 1 receptor in rat brain homogenates
Type: tissue-based
testReadout: Ratio Ki

c1ccc(CCN2CCCCC2)cc1; 5
CN(C)[C@H]1CCCC[C@@H]1OCCCc1ccccc1 (relative stereo); 65
CN(CCCc1ccccc1)[C@H]1CCCC[C@@H]1O (relative stereo); 0.4
CN(CCc1ccccc1)[C@H]1CCCC[C@@H]1O (relative stereo); 2

I: CN(CCc1ccccc1)[C@H]1CCCC[C@@H]1OCCCc1ccccc1 (relative stereo)
II: CN(C)[C@H]1CCCC[C@@H]1OC/C=C/c1ccccc1 (relative stereo)
**Query** Look at I and II . Which one has the lower recorded Ratio Ki number? Reply with the label of the item you choose.
**Result** I
